Test System: R232-STING (Homo sapiens, UniProt Q86WV6, H232R)
Sequence (Q86WV6 155-341 H232R): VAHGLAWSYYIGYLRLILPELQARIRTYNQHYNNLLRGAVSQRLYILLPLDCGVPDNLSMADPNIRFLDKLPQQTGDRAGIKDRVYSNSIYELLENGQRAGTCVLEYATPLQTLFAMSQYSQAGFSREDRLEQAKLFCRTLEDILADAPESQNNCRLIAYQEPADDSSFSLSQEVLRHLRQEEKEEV
Protocol Details: biochemical
Measurement Name: Ki (nM)

> print(dat)
                                   compound  measurement.name  value.observed
1  CCn1nc(C)cc1-c1nnc(-c2cc(C(N)=O)cc3c2cnn3C2CC3(CCNC3)C2)[nH]1 (stereo not shown) [YY17]                Ki             376
2  CCn1nc(C)cc1-c1n[nH]c(-c2cc(C(N)=O)cc3c2cnn3CCN2CCOC[C@@H]2C2CC2)n1 (racemic) [ZZZ099]                Ki             723
3  Cc1nn(CCCO)c(-c2nc(-c3cc(C(N)=O)cc4c3cnn4C)n[nH]2)c1F [Example C07]                Ki             3.6
4  Cn1ncc2c(-c3nc(-c4cc(C(F)(F)F)nn4CCC(=O)O)n[nH]3)cc(C(N)=O)cc21 [ZZZ085]                Ki            44.2
